Test system: Staphylococcus warneri
Assay: Antibacterial activity against Staphylococcus warneri by CLSI M100-S18 method
Assay type: functional
Measured metric: MIC90

State the recorded MIC90 for every item in the following list.
1. CC[C@H]1OC(=O)[C@H](C)[C@@H](O[C@H]2C[C@@](C)(OC)[C@@H](O)[C@H](C)O2)[C@H](C)[C@@H](O[C@@H]2O[C@H](C)C[C@H](N(C)C)[C@H]2O)[C@](C)(O)C[C@@H](C)CN(C)[C@H](C)[C@@H](O)[C@]1(C)O
2. Cc1onc(-c2ccccc2)c1C(=O)N[C@@H]1C(=O)N2[C@@H]1SC(C)(C)[C@@H]2C(=O)O
3. C[C@H]1COc2c(N3CCN(C)CC3)c(F)cc3c(=O)c(C(=O)O)cn1c23.C[C@H]1COc2c(N3CCN(C)CC3)c(F)cc3c(=O)c(C(=O)O)cn1c23.O

Result:
1: > 8 µg/mL; 2: > 8 µg/mL; 3: > 8 µg/mL
